- Assay Remarks: Analysis of retinoid composition in mouse tissues: amide forms in liver by HPLC
- Format: in vivo, mice
- Measurement Setup: 4-week-old Abca4−/−Rdh8−/− mice, oral gavage, dark 24 h; liver extracts by HPLC
Measured Endpoint: Protection by amide in liver

CC1=C(/C=C/C(C)=C/C=C/C(C)=C/CN)C(C)(C)CCC1: Strong
CC(C)(C)C(=C\C=C\CN)/C=C/C1=CCCCC1: None
CC1=C(/C=C/C(=C/C=C/C(C)=C/CN)C(C)(C)C)C(C)(C)CCC1: Weak
CC(/C=C/C1=CCCCC1)=C\C=C\C(C)=C\CN: None
CC1=C(/C=C/C=C/C=C/C=C/CN)C(C)(C)CCC1: Strong
CC(/C=C/C=C(/C=C/C1=CCCCC1)C(C)(C)C)=C\CN: Strong

Please turn your attention to the following entry.
Looking up COc1ccc(C(=C\C=C\C(C)=C\CN)/C=C/c2ccc(O)cc2)cc1 , I see its Protection by amide in liver listed as None

###

- Tested On: LRAT (Bos taurus, UniProt Q9BGL2)
- Construct: incubated with RPF microsomes that served as a source of LRAT enzymatic activity; from tissue; host or cells: bovine retinal pigment epithelium (RPE) microsomes
- Sequence (Q9BGL2 whole entry): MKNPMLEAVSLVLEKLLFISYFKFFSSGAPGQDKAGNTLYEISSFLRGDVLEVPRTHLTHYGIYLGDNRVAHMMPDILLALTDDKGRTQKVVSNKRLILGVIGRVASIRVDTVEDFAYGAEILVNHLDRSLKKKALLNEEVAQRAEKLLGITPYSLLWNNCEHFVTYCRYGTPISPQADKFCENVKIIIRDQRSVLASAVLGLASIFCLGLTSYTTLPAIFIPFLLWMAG
- Assay Remarks: LRAT activity assay with bovine RPE microsomes (esterification of the corresponding primary alcohols)
- Format: biochemical
- Measurement Setup: percentage of the corresponding primary alcohol esterified by LRAT in 1 h at 37° C; 10 μM; RPE microsomes
- Description: Bovine RPE microsomes were isolated from RPE homogenates by differential centrifugation as previously described. The resulting microsomal precipitate was resuspended in 10 mM Bis-Tris propane/HCl buffer, pH 7.4, to achieve a total protein concentration of −5 mg·ml^−1. […] Reaction products were separated and quantified by normal phase HPLC (Agilent Sil 5 μm, 4.6 mm×250 mm) in stepwise gradient of ethyl acetate in hexanes (0-15 min, 10%; 20-30 min, 30%) at a flow rate of 1.4 ml·min^−1. […]
Measured Endpoint: LRAT Substrate (%)
Give bare numbers, in %.

Below are worked cases with known answers.
CC1=C(/C=C/C(C)=C/C=C/CN)C(C)(C)CC(O)C1 (stereo not drawn): 90
NC/C=C/C=C(/C=C/C1=CCCCC1)c1ccccc1: 30
CC1=C(/C=C/C=C/C=C/C=C/CN)C(C)(C)CCC1: 100
COc1ccc(C(=C\C=C\C(C)=C\CN)/C=C/C2=CCCCC2)cc1: 100

Please report LRAT Substrate for every entry that follows.
1. CC1=C(/C=C/C(=C/C=C/C(C)=C/CN)C(C)(C)C)C(C)(C)CCC1
2. CC(/C=C/C=C(/C=C/c1ccccc1)C(C)(C)C)=C\CN
3. CC1=C(/C=C/C(C)=C/C=C/C(C)=C/CN)C(C)(C)CCC1O (stereo not drawn)
4. CC(/C=C/C=C1/C=C(C2=CCCCC2)CCC1)=C\CN

Response line:
1. 100
2. 50
3. 100
4. 100

Memo: COc1ccc(C(=C\C=C\C(C)=C\CN)/C=C/c2cccnc2)cc1 , reported LRAT Substrate: 100

###

- Tested On: LRAT (Bos taurus, UniProt Q9BGL2)
- Construct: incubated with RPF microsomes that served as a source of LRAT enzymatic activity; from tissue; host or cells: bovine retinal pigment epithelium (RPE) microsomes
- Assay Remarks: LRAT activity assay with bovine RPE microsomes (esterification of the corresponding primary alcohols)
- Type: biochemical
- Measurement Setup: percentage of the corresponding primary alcohol esterified by LRAT in 1 h at 37° C; 10 μM; RPE microsomes
Measured Endpoint: LRAT Substrate (%)
Numbers only, in %.

CC(/C=C/C=C(/C=C/C1=CCCCC1)c1ccccc1)=C\CN: 100
CC(C)(C)C(=C\C=C\CN)/C=C/C1=CCCCC1: 10
CC1=C(/C=C/C(=C/C=C/CN)C(C)(C)C)CCCC1: 20
CC(/C=C/C=C(/c1ccc2ccccc2c1)C(C)(C)C)=C\CN: 20

Next:
LRAT Substrate for CC1=C(/C=C/C(C)=C/C=C/C(C)=C/C=C/CN)C(C)(C)CCC1O (centres unmarked) is 90

###

Answer each item with its documented IC50.
- Tested On: RPE65 (Bos taurus)
- Construct: from tissue; host or cells: bovine retinal pigment epithelium (RPE) microsomes
- Sequence (Q28175 whole entry): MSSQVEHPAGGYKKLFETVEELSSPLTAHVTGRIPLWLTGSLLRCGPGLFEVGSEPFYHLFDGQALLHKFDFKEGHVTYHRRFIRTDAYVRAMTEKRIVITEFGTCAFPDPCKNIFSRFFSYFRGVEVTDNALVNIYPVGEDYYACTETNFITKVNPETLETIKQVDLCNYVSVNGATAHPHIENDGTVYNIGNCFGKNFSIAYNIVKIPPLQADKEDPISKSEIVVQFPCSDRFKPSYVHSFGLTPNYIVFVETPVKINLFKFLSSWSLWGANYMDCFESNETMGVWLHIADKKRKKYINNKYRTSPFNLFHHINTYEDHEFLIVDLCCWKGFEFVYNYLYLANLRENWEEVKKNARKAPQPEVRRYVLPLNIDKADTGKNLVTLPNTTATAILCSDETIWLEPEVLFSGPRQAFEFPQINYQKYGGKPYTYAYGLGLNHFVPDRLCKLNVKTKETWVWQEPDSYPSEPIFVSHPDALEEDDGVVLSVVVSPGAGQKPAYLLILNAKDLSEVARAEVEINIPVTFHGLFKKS
- Assay Remarks: Retinoid isomerase activity assay (11-cis-retinol production in RPE microsomes)
- Assay type: biochemical, Bovine
- Measurement Setup: primary amine; decline in 11-cis-retinol production in RPE microsomes; read-out: Inhibition of RPE65

Use these answered entries as a reference point.
CC(/C=C/C=C1/C=C(C2=COCCC2)CCC1)=C\CN: > 200 µM
CC(/C=C/C=C(/C=C/c1ccc2c(c1)CCCC2)C(C)(C)C)=C\CN: > 200 µM
CC1=C(/C=C/C(C)=C/C=C/C(C)=C/CN)C(C)(C)CCC1O (stereo not drawn): < 10 µM

For each of the compounds below, note its IC50.
1. COc1ccc(C(=C\C=C\C(C)=C\CN)/C=C/c2ccc([N+](=O)[O-])cc2)cc1
2. CC1=C(/C=C/C(C)=C/C=C/CN)C(C)(C)CCC1
3. CC1=C(/C=C/C(C)=C/C=C/CN)C(C)(C)CC(O)C1 (stereo not drawn)
4. CC1=C(/C=C/C(C)=C/C=C/C(C)=C/CN)C(C)(C)CC(O)C1 (stereo not drawn)
5. CC1=C(/C=C/C(=C/C=C/C(C)=C/CN)C(C)(C)C)CCCC1

Response line:
["> 200 µM", "< 10 µM", "< 10 µM", "< 10 µM", "> 200 µM"]

# compound CC1=C(/C=C/C(=C/C=C/C(C)=C/CN)C(C)(C)C)C(C)(C)CCC1 ; its IC50 = 10 to 100 µM

###

- Tested on: Abca4^−/−Rdh8^−/− mice
- Assay Remarks: Toxicity in treated Abca4−/−Rdh8−/− mice (Table 2)
- Type: in vivo
- Measurement Setup: 4-week-old Abca4−/−Rdh8−/− mice, oral gavage
Measured Endpoint: Toxicity

// solved cases for Toxicity follow
COc1ccc(C(=C\C=C\C(C)=C\CN)/C=C/c2ccc(O)cc2)cc1: None
COc1ccc(C(=C\C=C\C(C)=C\CN)/C=C/C2=CCCCC2)cc1: None
CC(/C=C/C1=CCCCC1)=C\C=C\C(C)=C\CN: None
CC(/C=C/C=C(/C=C/C1=CCCCC1)C(C)(C)C)=C\CN: Yes
CC1=C(/C=C/C(=C/C=C/C(C)=C/CN)C(C)(C)C)CCCC1: None
CC(C)(C)C(=C\C=C\CN)/C=C/C1=CCCCC1: Yes
CC1=C(/C=C/C=C/C=C/C=C/CN)C(C)(C)CCC1: None
CC(/C=C/C=C(/c1ccc2ccccc2c1)C(C)(C)C)=C\CN: Yes

Query compound follows.
The compound listed as CC(/C=C/C=C(/C=C/c1ccc(C(F)(F)F)cc1)c1ccccc1)=C\CN shows Toxicity equal to Yes

###

- Assay Remarks: Analysis of retinoid composition in mouse tissues: amide forms in liver by HPLC
- Type: in vivo, mice
- Measurement Setup: 4-week-old Abca4−/−Rdh8−/− mice, oral gavage, dark 24 h; liver extracts by HPLC
Measured Endpoint: Protection by amide in liver

COc1ccc(C(=C\C=C\C(C)=C\CN)/C=C/C2=CCCCC2)cc1: Weak
CC1=C(/C=C/C(=C/C=C/C(C)=C/CN)C(C)(C)C)CCCC1: None
CC(/C=C/C=C(/C=C/c1ccc(C(F)(F)F)cc1)c1ccccc1)=C\CN: None
CC(/C=C/C=C(/C=C/c1ccccc1)C(C)(C)C)=C\CN: Strong

GET /value?item= CC(/C=C/C=C(/c1ccc2ccccc2c1)C(C)(C)C)=C\CN &field=Protection by amide in liver returns Strong

###

- Tested on: Abca4^−/−Rdh8^−/− mice
- Assay Remarks: Toxicity in treated Abca4−/−Rdh8−/− mice (Table 2)
- Format: in vivo
- Measurement Setup: 4-week-old Abca4−/−Rdh8−/− mice, oral gavage
Measured Endpoint: Toxicity

CC1=C(/C=C/C(C)=C/C=C/C(C)=C/CN)C(C)(C)CCC1 [QEA-A-001-NH2, retinylamine]: None
CC(/C=C/C=C(/C=C/c1ccccc1)C(C)(C)C)=C\CN [QEA-C-001-NH2]: Yes
CC1=C(/C=C/C(=C/C=C/C(C)=C/CN)C(C)(C)C)C(C)(C)CCC1 [QEA-B-003-NH2]: None

###

- Assay Remarks: Analysis of retinoid composition in mouse tissues: amide forms in liver by HPLC
- Type: in vivo, mice
- Measurement Setup: oral gavage, liver HPLC
Measured Endpoint: amidation in vivo (accumulation of amide forms in mouse liver)

CC1=C(/C=C/C(=C/C=C/C(C)=C/CN)C(C)(C)C)CCCC1: not efficiently amidated
COc1ccc(C(=C\C=C\C(C)=C\CN)/C=C/C2=CCCCC2)cc1: not efficiently amidated
CC(/C=C/C1=CCCCC1)=C\C=C\C(C)=C\CN: not efficiently amidated
